- Target entity: GPR43 (Homo sapiens)
- Construct: expressed in transfected cells
- Test name: [35S]GTPγS binding assay
- Type: biochemical
- Experimental context: membranes from stable cell line over expressing GPR43; sodium acetate at EC80
pIC50: −log10 of the molar value.
Quantity measured: pIC50

compound="CC1(C(=O)N(CCCC(=O)O)Cc2ccc3cc[nH]c3c2)CCN1C(=O)Cc1csc2ccccc12 (centres unmarked) [Compound 128]" readout_value="6.30 to 7.00"
compound="CCC1(C(=O)N(CCCC(=O)O)Cc2cccc(Cl)c2)CCN1C(=O)c1csc2ccccc12 (centres unmarked) [Compound 195]" readout_value="6.30 to 7.00"
compound="CC1(C(=O)N(CCC(=O)O)Cc2cccc(Cl)c2)CCN1C(=O)c1csc2ccccc12 (centres unmarked) [Compound 169]" readout_value="< 6.30"
compound="CC1(C(=O)N(CCCC(=O)O)Cc2ccc3cc[nH]c3c2)CCN1C(=O)c1csc2ccccc12 (centres unmarked) [Compound 134]" readout_value="< 6.30"
compound="CC1(C(=O)N(CCCS(N)(=O)=O)Cc2cccc(Cl)c2)CCN1C(=O)c1csc2ccccc12 (centres unmarked) [Compound 187]" readout_value="6.30 to 7.00"
compound="CC1(C(=O)N(CCCC(=O)O)Cc2ccc(Cl)cc2)CCN1C(=O)c1csc2ccccc12 (centres unmarked) [Compound 115]" readout_value="6.30 to 7.00"
compound="CC1(C(=O)N(CCO)Cc2ccc(Cl)cc2)CCN1C(=O)Cc1csc2ccccc12 (centres unmarked) [Compound 67]" readout_value="6.30 to 7.00"
compound="CC1(C(=O)N(CCCC(=O)O)Cc2ccc(C(F)(F)F)cc2)CCN1C(=O)Cc1csc2ccccc12 (centres unmarked) [Compound 144]" readout_value="7.00 to 7.29"

* * *

Measured pIC50 values are reported for all entries that follow.
- Target entity: GPR43 (Homo sapiens)
- Construct: expressed in transfected cells
- Test name: Calcium mobilization assay without probenecid
- Format: cell-based
- Experimental context: GPR43 stably expressing cells, triggered with sodium acetate at EC80, read-out: GPR43 assay without probenicid IC50
- Method: The following assay can be used for determination of GPR43 activation. The assay measures intracellular calcium release induced by activation of GPR43. […] Finally the cells were triggered with sodium acetate at EC80 concentration (concentration which gives 80% of the activity of the GPR43) and the Ca-flux was measured simultaneously to the trigger injection on a fluorescence plate reader (FlexStation3), this measures the antagonist activity of the compounds. […]
pIC50: −log10 of the molar value.
Quantity measured: pIC50

compound="CC1(C(=O)NCc2ccc(Cl)cc2)CCN1C(=O)C1(c2ccc(Cl)cc2Cl)CC1 (stereo not shown) [Compound 52]" target_entity="GPR43 (Homo sapiens)" readout_value="< 6.00"
compound="Cc1cc(C)cc(CC(=O)N2CCC2(C)C(=O)N(C)Cc2cccc(Cl)c2)c1 (stereo not shown) [Compound 5]" target_entity="GPR43 (Homo sapiens)" readout_value="< 6.00"
compound="CN(Cc1ccc(Cl)cc1)C(=O)C1(C)CCN1C(=O)Cc1cn(C)c2ccccc12 (stereo not shown) [Compound 91]" target_entity="GPR43 (Homo sapiens)" readout_value="< 6.00"
compound="Cc1cc(C)cc(CC(=O)N2CCC2(C)C(=O)N(CCNS(C)(=O)=O)Cc2ccc(Cl)cc2)c1 (stereo not shown) [Compound 102]" target_entity="GPR43 (Homo sapiens)" readout_value="6.00 to 6.30"
compound="CC1(C(=O)N(CCCO)Cc2ccc(Cl)cc2)CCN1C(=O)Cc1csc2ccccc12 (stereo not shown) [Compound 70]" target_entity="GPR43 (Homo sapiens)" readout_value="6.30 to 7.00"
compound="CC(=O)NCCN(Cc1ccc(Cl)cc1)C(=O)C1(C)CCN1C(=O)Cc1cc(C)cc(C)c1 (stereo not shown) [Compound 101]" target_entity="GPR43 (Homo sapiens)" readout_value="6.30 to 7.00"
compound="CC1(C(=O)N(CCCc2nnn[nH]2)Cc2ccc(Cl)cc2)CCN1C(=O)Cc1csc2ccccc12 (stereo not shown) [Compound 100]" target_entity="GPR43 (Homo sapiens)" readout_value="7.00 to 11.00"
compound="COC(=O)CN(Cc1ccc(Cl)cc1)C(=O)C1(C)CCN1C(=O)Cc1cc(C)cc(C)c1 (stereo not shown) [Compound 48]" target_entity="GPR43 (Homo sapiens)" readout_value="6.00 to 6.30"
compound="CN(Cc1ccc(Cl)cc1)C(=O)C1(C)CCN1C(=O)Cc1ccc(Cl)c(Cl)c1 (stereo not shown) [Compound 18]" target_entity="GPR43 (Homo sapiens)" readout_value="< 6.00"
compound="CN(Cc1ccc(Cl)cc1)C(=O)C1(C)CCN1C(=O)Cc1cccc(Cl)c1 (stereo not shown) [Compound 10]" target_entity="GPR43 (Homo sapiens)" readout_value="< 6.00"
compound="CC1(C(=O)Nc2ccc(Cl)cc2)CCN1C(=O)Cc1ccc(Cl)cc1Cl (stereo not shown) [Compound 4]" target_entity="GPR43 (Homo sapiens)" readout_value="< 6.00"
compound="Cc1cc(C)cc(CC(=O)N2CCC2(C)C(=O)N(CCC(N)=O)Cc2ccc(Cl)cc2)c1 (stereo not shown) [Compound 71]" target_entity="GPR43 (Homo sapiens)" readout_value="< 6.00"
compound="COCCN(Cc1ccc(Cl)cc1)C(=O)C1(C)CCN1C(=O)Cc1cc(C)cc(C)c1 (stereo not shown) [Compound 56]" target_entity="GPR43 (Homo sapiens)" readout_value="< 6.00"
compound="CN(Cc1ccc(Cl)cc1)C(=O)C1(C)CCN1C(=O)Cc1cccc(I)c1 (stereo not shown) [Compound 8]" target_entity="GPR43 (Homo sapiens)" readout_value="6.00 to 6.30"
compound="Cc1cc(C)cc(CC(=O)N2CCC2(C)C(=O)N(CCCC(=O)O)Cc2ccc(Cl)cc2)c1 (stereo not shown) [Compound 64]" target_entity="GPR43 (Homo sapiens)" readout_value="6.30 to 7.00"
compound="CCOC(=O)CCCN(Cc1ccc(Cl)cc1)C(=O)C1(C)CCN1C(=O)Cc1csc2ccccc12 (stereo not shown) [Compound 87]" target_entity="GPR43 (Homo sapiens)" readout_value="6.00 to 6.30"

* * *

- Target entity: GPR43 (Homo sapiens, UniProt O15552)
- Construct: expressed in transfected cells
- Sequence (O15552 whole entry): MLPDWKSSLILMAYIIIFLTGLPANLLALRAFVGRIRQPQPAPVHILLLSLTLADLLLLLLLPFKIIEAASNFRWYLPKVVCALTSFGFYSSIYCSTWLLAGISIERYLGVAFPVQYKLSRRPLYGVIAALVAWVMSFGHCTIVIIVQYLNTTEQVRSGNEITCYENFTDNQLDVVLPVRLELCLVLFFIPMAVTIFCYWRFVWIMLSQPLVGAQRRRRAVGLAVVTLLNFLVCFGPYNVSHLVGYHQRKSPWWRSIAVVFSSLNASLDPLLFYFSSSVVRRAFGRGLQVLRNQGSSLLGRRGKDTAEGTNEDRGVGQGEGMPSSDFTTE
- Test name: Calcium mobilization assay with probenecid
- Type: cell-based
- Experimental context: GPR43 stably expressing cells; triggered with sodium acetate at EC80; 2.5 mM probenecid; read-out: GPR43 assay with probenicid IC50
pIC50: −log10 of the molar value.
Below: a set of entries, each annotated with reported pIC50.
Quantity measured: pIC50

molecule="Cc1cc(C)cc(CC(=O)N2CCC2(C)C(=O)N(C)Cc2ccc(CC(C)C)cc2)c1 (stereo not shown) [Compound 34]" readout_value="< 6.00"
molecule="CS(=O)(=O)NC(=O)CCCN(Cc1cccc(Cl)c1)C(=O)C1(Cc2ccc(F)cc2)CCN1C(=O)c1csc2ccccc12 (stereo not shown) [Compound 241]" readout_value="6.00 to 6.30"
molecule="Cc1cc(C)cc(CC(=O)N2CCC2(C)C(=O)N(CC(=O)O)Cc2ccc(Cl)cc2)c1 (stereo not shown) [Compound 49]" readout_value="6.30 to 7.00"
molecule="Cc1cc(C)cc(NC(=O)N2CCC2(C)C(=O)N(CCCC(=O)O)Cc2ccc(Cl)cc2)c1 (stereo not shown) [Compound 200]" readout_value="< 6.00"
molecule="CNS(=O)(=O)CCN(Cc1ccc(Cl)cc1)C(=O)C1(C)CCN1C(=O)c1csc2ccccc12 (stereo not shown) [Compound 193]" readout_value="6.30 to 7.00"
molecule="Cc1cc(C)cc(CC(=O)N2CCC2(C)C(=O)N(CC(=O)NC2CC2)Cc2ccc(Cl)cc2)c1 (stereo not shown) [Compound 81]" readout_value="6.30 to 7.00"
molecule="CCOC(=O)CCCN(Cc1ccc(C(F)(F)F)cc1)C(=O)C1(C)CCN1C(=O)Cc1cc(C)cc(C)c1 (stereo not shown) [Compound 165]" readout_value="6.00 to 6.30"
molecule="COC(=O)CCN(Cc1ccc2cn[nH]c2c1)C(=O)C1(C)CCN1C(=O)Cc1csc2ccccc12 (stereo not shown) [Compound 175]" readout_value="7.00 to 11.00"
molecule="CC1(C(=O)N(CCC(=O)O)Cc2ccc(Cl)cc2)CCN1C(=O)c1csc2ccccc12 (stereo not shown) [Compound 155]" readout_value="7.00 to 11.00"
molecule="CN(Cc1ccc(Cl)cc1)C(=O)C1(C)CCN1C(=O)c1ccc2sccc2c1 (stereo not shown) [Compound 112]" readout_value="6.00 to 6.30"
molecule="C[C@]1(C(=O)N(CCCC(=O)NS(C)(=O)=O)Cc2cccc(Cl)c2)CCN1C(=O)c1csc2ccccc12 [Compound 207]" readout_value="7.00 to 11.00"
molecule="Cc1ccc(OC(=O)N2CCC2(C)C(=O)N(CCCC(=O)O)Cc2ccc(Cl)cc2)c(Cl)c1 (stereo not shown) [Compound 223]" readout_value="< 6.00"
molecule="CC1(C(=O)N(CCCC(=O)O)Cc2ccc(Cl)cc2)CCN1C(=O)Cc1cccc2sccc12 (stereo not shown) [Compound 136]" readout_value="6.30 to 7.00"
molecule="CC[C@]1(C(=O)N(CCCS(N)(=O)=O)[C@@H](C)c2ccc(Cl)cc2)CCN1C(=O)c1csc2ccccc12 [Compound 244]" readout_value="< 6.00"
molecule="CC1(C(=O)N(CCCC(=O)O)Cc2ccc3scnc3c2)CCN1C(=O)c1csc2ccccc12 (stereo not shown) [Compound 184]" readout_value="6.30 to 7.00"
molecule="COC(=O)CCCN(Cc1ccc(Cl)cc1)C(=O)C1(C)CCN1C(=O)Cc1cc(C)cc(C)c1 (stereo not shown) [Compound 63]" readout_value="6.30 to 7.00"
molecule="CCOC(=O)CCCN(Cc1ccc2cn[nH]c2c1)C(=O)C1(C)CCN1C(=O)Cc1coc2ccccc12 (stereo not shown) [Compound 152]" readout_value="6.30 to 7.00"
molecule="CC1(C(=O)N(CC(=O)O)Cc2ccc(Cl)cc2)CCN1C(=O)Cc1coc2ccccc12 (stereo not shown) [Compound 78]" readout_value="6.30 to 7.00"
molecule="Cc1cc(C)cc(CC(=O)N2CCC2(C)C(=O)N(C)Cc2ccc(OC(F)(F)F)cc2)c1 (stereo not shown) [Compound 37]" readout_value="< 6.00"
molecule="CC1(C(=O)N(CCCc2nnn[nH]2)Cc2ccc(Cl)cc2)CCN1C(=O)Cc1csc2ccccc12 (stereo not shown) [Compound 100]" readout_value="7.00 to 11.00"
molecule="CN(Cc1ccc(Cl)cc1)C(=O)C1(C)CCN1C(=O)Cc1ccccc1OCc1ccccc1 (stereo not shown) [Compound 16]" readout_value="< 6.00"
molecule="CC1(C(=O)N(CCCC(=O)O)c2ccc(Cl)nc2)CCN1C(=O)c1csc2ccccc12 (stereo not shown) [Compound 249]" readout_value="< 6.00"
molecule="Cc1cc(C)cc(CC(=O)N2CCC2(C)C(=O)N(Cc2ccc(Cl)cc2)Cc2cc(O)[nH]n2)c1 (stereo not shown) [Compound 133]" readout_value="7.00 to 11.00"
molecule="CC1(C(=O)N(CCCC(=O)O)Cc2ccc(Cl)cc2)CCN1C(=O)Oc1ccccc1Br (stereo not shown) [Compound 235]" readout_value="< 6.00"
molecule="CC1(C(=O)NCc2ccc(Cl)cc2)CCN1C(=O)Oc1ccc(Cl)cc1 (stereo not shown) [Compound 2]" readout_value="< 6.00"
molecule="Cc1ccc(C)c(CC(=O)N2CCC2(C)C(=O)N(C)Cc2ccc(Cl)cc2)c1 (stereo not shown) [Compound 41]" readout_value="< 6.00"
molecule="Cc1cc(C)cc(N(C)C(=O)N2CCC2(C)C(=O)N(CCCC(=O)O)Cc2ccc(Cl)cc2)c1 (stereo not shown) [Compound 201]" readout_value="< 6.00"
molecule="CCC1(C(=O)N(CCCS(N)(=O)=O)Cc2cccc(Cl)c2)CCN1C(=O)c1csc2ccccc12 (stereo not shown) [Compound 208]" readout_value="7.00 to 11.00"
molecule="Cc1cc(C)cc(CC(=O)N2CCC2(C)C(=O)N(Cc2ccc(Cl)cc2)Cc2nnc(O)o2)c1 (stereo not shown) [Compound 111]" readout_value="6.00 to 6.30"
molecule="CC1(C(=O)N(CCCC(=O)O)Cc2ccc3cc[nH]c3c2)CCN1C(=O)c1csc2ccccc12 (stereo not shown) [Compound 134]" readout_value="7.00 to 11.00"
molecule="COc1ccc(CNS(=O)(=O)CCCN(Cc2ccc(Cl)cc2)C(=O)C2(C)CCN2C(=O)Cc2csc3ccccc23)c(OC)c1 (stereo not shown) [Compound 178]" readout_value="< 6.00"
